Target: DENV2 protease (Dengue virus type 2, UniProt P14340)
Sequence (P14340 1476-1653): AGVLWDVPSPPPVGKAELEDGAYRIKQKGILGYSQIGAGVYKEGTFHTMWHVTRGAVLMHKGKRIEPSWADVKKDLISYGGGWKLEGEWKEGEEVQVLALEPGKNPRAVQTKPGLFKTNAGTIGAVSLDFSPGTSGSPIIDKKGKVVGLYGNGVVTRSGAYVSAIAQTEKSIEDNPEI
Sequence (P14340 1398-1437): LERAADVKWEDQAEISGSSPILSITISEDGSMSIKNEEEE
Property Measured: IC50 (µM)
Field format: number, assumed µM, no unit text.

IC50 for CCCCCCCCCCCCCCCCNC(=O)[C@H](CCCCN)NC(=O)[C@H](CCCCN)NC(=O)CCCCCCCCCCCCCCC is 4.25

----------
Kindly state pIC50 for each of the entries shown.
Where a SMILES comes first, the peptide text is derived from it. The star is where a group is joined. Palmitoyl = CCCCCCCCCCCCCCCC(=O)*; NHhexadecyl = CCCCCCCCCCCCCCCCN*
Recall that pIC50 is obtained by taking minus log10 of the concentration measured in molar.

Summary line: CCCCCCCCCCCCCCCCNC(=O)[C@H](CCCCN)NC(=O)[C@H](C)NC(=O)[C@H](C)NC(=O)[C@H](CCCCN)NC(=O)CCCCCCCCCCCCCCC [Compound 2b, C15H31C(O)-Lys-(Ala)2-Lys-NHC16H33.2TFA] (Palmitoyl-KAAK-NHhexadecyl) , human furin (Homo sapiens), reported pIC50 = 5.67

Summary line: CCCCCCCCCCCCCCCCNC(=O)[C@H](CCCCN)NC(=O)[C@H](C)NC(=O)[C@H](CCCCN)NC(=O)CCCCCCCCCCCCCCC [Compound 2a, C15H31C(O)-Lys-(Ala)-Lys-NHC16H33.2TFA] , human furin (Homo sapiens), reported pIC50 = 5.45
